Data provenance is ChEMBL document CHEMBL2169796.

targetOfAssay: Prostaglandin G/H synthase 2 (Homo sapiens)
Sequence (whole entry): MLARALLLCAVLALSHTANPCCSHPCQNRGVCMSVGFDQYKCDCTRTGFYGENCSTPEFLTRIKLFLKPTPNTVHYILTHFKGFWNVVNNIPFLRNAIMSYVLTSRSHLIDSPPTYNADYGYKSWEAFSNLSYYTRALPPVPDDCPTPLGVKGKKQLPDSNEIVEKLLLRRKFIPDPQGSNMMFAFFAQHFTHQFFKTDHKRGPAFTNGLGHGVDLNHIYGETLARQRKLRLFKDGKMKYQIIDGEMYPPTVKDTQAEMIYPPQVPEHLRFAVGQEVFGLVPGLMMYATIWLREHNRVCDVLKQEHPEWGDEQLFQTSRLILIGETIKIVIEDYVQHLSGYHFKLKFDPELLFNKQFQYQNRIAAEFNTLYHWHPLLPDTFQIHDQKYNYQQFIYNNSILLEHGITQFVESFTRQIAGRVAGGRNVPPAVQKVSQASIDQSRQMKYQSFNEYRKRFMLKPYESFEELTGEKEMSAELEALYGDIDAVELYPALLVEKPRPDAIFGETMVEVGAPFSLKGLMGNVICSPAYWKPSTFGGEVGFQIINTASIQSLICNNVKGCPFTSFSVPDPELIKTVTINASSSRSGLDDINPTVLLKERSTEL
assayMethodText: Inhibition of peroxidase activity of COX-2 overexpressed in human MDA-MB-468 cells at 50 uM by spectrophotometry; values are per cent of control
reportedMetric: residual activity (%)

[
  {
    "smilesRecord": "CC/C=C\\CCCCCCCCCCCCCCCCCC(=O)O",
    "residual activity (%)": 58
  },
  {
    "smilesRecord": "CC/C=C\\CCCCCCCCCCCCCCCCC(=O)O",
    "residual activity (%)": 54
  },
  {
    "smilesRecord": "CC/C=C\\CCCCCCCCCCCCCCC(=O)O",
    "residual activity (%)": 71
  },
  {
    "smilesRecord": "CC/C=C\\CCCCCCCCCCCCCCCC(=O)O",
    "residual activity (%)": 62
  }
]
